These data points were gathered from patent US10251892B2.

# tgt: UniProtKB P22455
# Sequence (P22455 22-802): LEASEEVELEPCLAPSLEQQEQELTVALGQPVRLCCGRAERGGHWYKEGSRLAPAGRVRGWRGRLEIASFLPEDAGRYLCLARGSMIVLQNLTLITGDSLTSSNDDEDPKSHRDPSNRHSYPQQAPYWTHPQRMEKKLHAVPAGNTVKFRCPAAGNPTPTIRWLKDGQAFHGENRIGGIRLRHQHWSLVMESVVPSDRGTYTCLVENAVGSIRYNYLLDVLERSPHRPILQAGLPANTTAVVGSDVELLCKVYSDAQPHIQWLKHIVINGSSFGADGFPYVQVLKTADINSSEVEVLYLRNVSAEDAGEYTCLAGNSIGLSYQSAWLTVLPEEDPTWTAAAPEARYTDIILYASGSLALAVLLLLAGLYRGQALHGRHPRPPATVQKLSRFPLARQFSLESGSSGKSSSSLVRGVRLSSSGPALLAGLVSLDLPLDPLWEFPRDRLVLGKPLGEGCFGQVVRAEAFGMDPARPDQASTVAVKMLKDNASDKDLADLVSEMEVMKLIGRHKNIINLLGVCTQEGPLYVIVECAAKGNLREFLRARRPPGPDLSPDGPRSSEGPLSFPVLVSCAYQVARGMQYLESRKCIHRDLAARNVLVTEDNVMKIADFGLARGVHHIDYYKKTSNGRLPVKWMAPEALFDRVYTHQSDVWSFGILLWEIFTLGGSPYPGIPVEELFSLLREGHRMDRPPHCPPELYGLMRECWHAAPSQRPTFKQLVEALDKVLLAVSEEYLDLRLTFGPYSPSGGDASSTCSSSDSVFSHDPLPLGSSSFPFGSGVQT
# test summary: FGFR Enzymatic Assay (peptide phosphorylation, FRET), FGFR4
# Format: biochemical
# cond: IC50 ratio showing FGFR4 selectivity; pre-incubated for 4 hours
quantity measured: FGFR3/FGFR4

INSERT INTO measurements (molecule, readout_value) VALUES
  ('COc1cc(OC)c(F)c(N2Cc3cnc(-c4cc(N)ccc4C)cc3C3(CC3)C2=O)c1F [Example 1]', '>25'),
  ('COc1cc(OC)c(F)c(N2Cc3cnc(-c4cc(N)cnc4C)cc3C3(CC3)C2=O)c1F [Example 7]', '>25'),
  ('COc1cc(OC)c(F)c(N2Cc3cnc(-c4cc(N)ccc4C#N)cc3C3(CC3)C2=O)c1F [Example 3]', '>10'),
  ('COc1cc(OC)c(F)c(N2Cc3cnc(-c4nn(C)cc4C#N)cc3C3(CC3)C2=O)c1F [Example 172]', '>10'),
  ('COc1cc(OC)c(F)c(N2Cc3cnc(-c4cncc(Cl)c4)cc3C3(CC3)C2=O)c1F [Example 11]', '>10'),
  ('COc1cc(OC)c(F)c(N2Cc3cnc(-c4cncc(S(=O)(=O)N5CCOCC5)c4)cc3C3(CC3)C2=O)c1F [Example 14]', '>1'),
  ('COc1cc(OC)c(F)c(N2Cc3cnc(-c4cncc(C(=O)N5CCOCC5)c4)cc3C3(CC3)C2=O)c1F [Example 13]', '>10'),
  ('COc1cc(OC)c(F)c(N2Cc3cnc(-c4cncc(N5CCOCC5)c4)cc3C3(CC3)C2=O)c1F [Example 6]', '>25'),
  ('COc1cc(OC)c(F)c(N2Cc3cnc(-c4cncc(N)c4)cc3C3(CC3)C2=O)c1F [Example 4]', '>10');

###

# tgt: FGFR3 enzyme (Homo sapiens (Human), UniProt P22607)
# Sequence (P22607 23-806): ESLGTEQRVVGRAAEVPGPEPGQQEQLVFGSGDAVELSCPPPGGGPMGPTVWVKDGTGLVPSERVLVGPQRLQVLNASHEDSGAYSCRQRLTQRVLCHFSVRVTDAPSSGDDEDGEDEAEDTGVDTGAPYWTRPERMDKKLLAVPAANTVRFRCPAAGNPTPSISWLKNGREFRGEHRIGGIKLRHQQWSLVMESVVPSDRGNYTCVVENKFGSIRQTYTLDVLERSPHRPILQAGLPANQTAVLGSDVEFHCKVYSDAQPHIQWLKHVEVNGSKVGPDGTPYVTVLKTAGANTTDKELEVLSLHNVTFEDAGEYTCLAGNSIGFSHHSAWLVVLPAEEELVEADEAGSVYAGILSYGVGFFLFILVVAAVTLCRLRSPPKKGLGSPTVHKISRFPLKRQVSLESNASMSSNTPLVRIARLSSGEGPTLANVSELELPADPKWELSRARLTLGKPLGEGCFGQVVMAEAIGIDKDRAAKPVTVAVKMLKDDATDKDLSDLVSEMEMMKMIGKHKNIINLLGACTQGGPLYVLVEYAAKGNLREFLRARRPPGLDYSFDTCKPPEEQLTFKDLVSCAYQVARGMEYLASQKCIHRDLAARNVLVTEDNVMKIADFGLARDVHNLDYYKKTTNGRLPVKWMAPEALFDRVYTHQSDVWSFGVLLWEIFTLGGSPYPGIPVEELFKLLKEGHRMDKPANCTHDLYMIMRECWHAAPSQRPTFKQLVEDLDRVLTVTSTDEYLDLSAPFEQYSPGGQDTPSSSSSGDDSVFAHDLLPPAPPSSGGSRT
# test summary: FGFR Enzymatic Assay (peptide phosphorylation, FRET), FGFR3
# Format: biochemical
# cond: IC50 ratio showing FGFR3 selectivity; pre-incubated for 4 hours
Measured FGFR4/FGFR3 accompanies every entry in the list below.
quantity measured: FGFR4/FGFR3

INSERT INTO assay_data (compound, quantity_measured, readout_value) VALUES
  ('COc1cc(OC)c(F)c(N2Cc3cnc(-c4cn(C)nc4C)cc3N(c3cc(F)cc(F)c3)C2=O)c1F [Example 103]', 'FGFR4/FGFR3', '>5'),
  ('COc1cc(OC)c(F)c(N2Cc3cnc(-c4cn(C)nc4C)cc3N(Cc3csc(C)n3)C2=O)c1F [Example 95]', 'FGFR4/FGFR3', '>10'),
  ('COc1cc(OC)c(F)c(N2Cc3cnc(-c4ccc(C5(C#N)CCC5)nc4)cc3N(c3ccncn3)C2=O)c1F [Example 135]', 'FGFR4/FGFR3', '>10'),
  ('CCN1C(=O)N(c2c(F)c(OC)cc(OC)c2F)Cc2cnc(-c3ccc(C(=O)NCCO)nc3)cc21 [Example 177]', 'FGFR4/FGFR3', '>10'),
  ('CCn1cnc(-c2cc3c(cn2)CN(c2c(F)c(OC)cc(OC)c2F)C(=O)C32CC2)c1 [Example 53]', 'FGFR4/FGFR3', '>5'),
  ('COc1cc(OC)c(F)c(N2Cc3cnc(-c4cn(CCC#N)nc4C)cc3C3(CC3)C2=O)c1F [Example 156]', 'FGFR4/FGFR3', '>1'),
  ('COc1cc(OC)c(F)c(N2Cc3cnc(-c4cn(C)nc4C)cc3N(c3ccc(C#N)cn3)C2=O)c1F [Example 79]', 'FGFR4/FGFR3', '>3'),
  ('COc1cc(OC)c(F)c(N2Cc3cnc(-c4cnn(CCC5CCN(S(C)(=O)=O)CC5)c4)cc3C3(CC3)C2=O)c1F [Example 148]', 'FGFR4/FGFR3', '>3'),
  ('COc1cc(OC)c(F)c(N2Cc3cnc(-c4cn(C)nc4C)cc3N(c3ccc(CC#N)cc3)C2=O)c1F [Example 97]', 'FGFR4/FGFR3', '>10'),
  ('CCN1C(=O)N(c2c(F)c(OC)cc(OC)c2F)Cc2cnc(-c3ccc(C(=O)NC(C)C)nc3)cc21 [Example 178]', 'FGFR4/FGFR3', '>5'),
  ('COc1ccc(CN2C(=O)N(c3c(F)c(OC)cc(OC)c3F)Cc3cnc(-c4cn(C)nc4C)cc32)cn1 [Example 59]', 'FGFR4/FGFR3', '>10'),
  ('CCN1C(=O)N(c2c(F)c(OC)cc(OC)c2F)Cc2cnc(-c3ccc(C4(C#N)CCC4)nc3)cc21 [Example 27]', 'FGFR4/FGFR3', '>10'),
  ('COc1cc(OC)c(F)c(N2Cc3cnc(-c4cn(C)nc4C)cc3N(c3ccc(C(=O)N(C)C)cc3)C2=O)c1F [Example 113]', 'FGFR4/FGFR3', '>5');

###

// reported FGFR4/FGFR3 per item
# tgt: UniProt P22607
# test summary: FGFR Enzymatic Assay (peptide phosphorylation, FRET), FGFR3
# Format: biochemical
# cond: IC50 ratio showing FGFR3 selectivity; pre-incubated for 4 hours
# Procedure: The inhibitor potency of the exemplified compounds was measured in an enzyme assay that measures peptide phosphorylation using FRET measurements to detect product formation. Inhibitors were serially diluted in DMSO and a volume of 0.5 μL was transferred to the wells of a 384-well plate. GraphPad prism3 was used to analyze the data.
quantity measured: FGFR4/FGFR3

INSERT INTO measurements (structure, readout_value) VALUES
  ('COc1cc(OC)c(F)c(N2Cc3cnc(-c4cn(C)nc4C)cc3N(C3(C#N)CC3)C2=O)c1F', '>5'),
  ('COc1cc(OC)c(F)c(N2Cc3cnc(-c4csc(N(C)C)n4)cc3C3(CC3)C2=O)c1F', '>5'),
  ('COc1cc(OC)c(F)c(N2Cc3cnc(-c4cn(C)nc4C)cc3N(c3ccncn3)C2=O)c1F', '>10'),
  ('COc1cc(OC)c(F)c(N2Cc3cnc(-c4cn(C)nc4C)cc3N(Cc3cnn(C)c3)C2=O)c1F', '>10'),
  ('COc1cc(OC)c(F)c(N2Cc3cnc(-c4ccncc4)cc3C3(CC3)C2=O)c1F', '>3'),
  ('COC(=O)N1CCC(N2C(=O)N(c3c(F)c(OC)cc(OC)c3F)Cc3cnc(-c4cn(C)nc4C)cc32)CC1', '>5'),
  ('COc1cc(OC)c(F)c(N2Cc3cnc(-c4cn(CCC5CCNCC5)nc4C)cc3C3(CC3)C2=O)c1F', '>3'),
  ('CCN1C(=O)N(c2c(F)c(OC)cc(OC)c2F)Cc2cnc(-c3cnn(C)c3)cc21', '>5'),
  ('COC(=O)Nc1ccc(N2C(=O)N(c3c(F)c(OC)cc(OC)c3F)Cc3cnc(-c4cn(C)nc4C)cc32)cc1', '>3');

###

# tgt: FGFR3 enzyme (Homo sapiens (Human))
# test summary: FGFR Enzymatic Assay (peptide phosphorylation, FRET), FGFR3
# Type: biochemical
# cond: IC50 ratio showing FGFR3 selectivity; pre-incubated for 4 hours
# Experimental: The inhibitor potency of the exemplified compounds was measured in an enzyme assay that measures peptide phosphorylation using FRET measurements to detect product formation. Inhibitors were serially diluted in DMSO and a volume of 0.5 μL was transferred to the wells of a 384-well plate. GraphPad prism3 was used to analyze the data.
The entries below come with measured FGFR4/FGFR3 values attached.
quantity measured: FGFR4/FGFR3

INSERT INTO measurements (compound, readout_value) VALUES
  ('COc1cc(OC)c(F)c(N2Cc3cnc(-c4cnn(CC5CCCS(=O)(=O)N5)c4)cc3C3(CC3)C2=O)c1F (stereo not shown)', '>1'),
  ('COc1ccc(N2C(=O)N(c3c(F)c(OC)cc(OC)c3F)Cc3cnc(-c4cn(C)nc4C)cc32)cc1', '>5'),
  ('COc1cc(OC)c(F)c(N2Cc3cnc(-c4cn(C)nc4C)cc3N(c3cnccn3)C2=O)c1F', '>5'),
  ('COc1cc(OC)c(F)c(N2Cc3cnc(-c4cn(C)nc4C)cc3N(c3ccc4nc(C)oc4c3)C2=O)c1F', '>3');

###

Here the recorded FGFR1/FGFR3 is given for each entry.
# tgt: FGFR3 enzyme (Homo sapiens (Human))
# test summary: FGFR Enzymatic Assay (peptide phosphorylation, FRET), FGFR3
# Format: biochemical
# cond: IC50 ratio showing FGFR3 selectivity; pre-incubated for 4 hours
quantity measured: FGFR1/FGFR3

INSERT INTO results (structure, readout_value) VALUES
  ('COc1cc(OC)c(F)c(N2Cc3cnc(-c4cn(C)nc4C)cc3N(c3ccc(C(=O)N(C)C)cc3)C2=O)c1F', '>3'),
  ('COc1cc(OC)c(F)c(N2Cc3cnc(-c4cccnc4)cc3C3(CC3)C2=O)c1F', '>3'),
  ('COc1ccc(CN2C(=O)N(c3c(F)c(OC)cc(OC)c3F)Cc3cnc(-c4cn(C)nc4C)cc32)cn1', '>10'),
  ('COc1cc(OC)c(F)c(N2Cc3cnc(-c4ccncc4)cc3C3(CC3)C2=O)c1F', '>3'),
  ('COc1cc(OC)c(F)c(N2Cc3cnc(-c4cn(C)nc4C)cc3N(c3ccc(C#N)cn3)C2=O)c1F', '>5'),
  ('COc1cc(OC)c(F)c(N2Cc3cnc(-c4cn(C)nc4C)cc3N(C3CCCC3)C2=O)c1F', '>1'),
  ('COc1cc(OC)c(F)c(N2Cc3cnc(-c4cn(C)nc4C)cc3N(c3cccc(F)c3)C2=O)c1F', '>5');
